Test system: HS 578T breast
Test: NCI-60 one-dose screen, 48 h (100 = growth as untreated, 0 = no growth, -100 = all killed)
Conditions: 10 µM unless noted
Compounds without any hit were thinned out: in the full panel of roughly 83,000, 20% have a hit.
Output Met for records whose growth is lower than 60%, Not met for records at or above 60%.

Some entries whose results are on file:
- C#CC(=O)Nc1cccc2c1cc(C)n2-c1nc2c(c(NCc3ccccc3)n1)CCCC2: Met
- O=C1NC(=O)C(=Cc2cn(Cc3ccccn3)c3ccccc23)C(=O)N1: Not met
- COc1ccc(Cn2nc3c(c2-c2cc(OC)c(OC)c(OC)c2)-c2oncc2CC3)cc1: Not met
- Cc1cn(-c2cc(C(=O)Nc3cccc(C#Cc4cccc5[nH]nc(N)c45)c3)cc(C(F)(F)F)c2)cn1: Met
- COc1cc(CNC(=O)CCCCC[P+](c2ccccc2)(c2ccccc2)c2ccccc2)c(OC)c2c1OCO2: Not met
- CCCCCCCCCCCCCCCC(=O)OC[C@@]1(O)C[C@@]23CC[C@@H]4C(C)(C)CCC[C@@]4(C)[C@@H]2CC[C@H]1C3: Not met
- COc1cc(C2CC(c3cccc(Nc4ccncc4)c3)=NN2c2ccc(Cl)cc2)cc(OC)c1OC (stereo not drawn): Met
- O=C(NNc1nc(Cl)nc(N2CCN(C(c3ccccc3)c3ccccc3)CC2)n1)c1ccccc1: Met

Ask: A record lists "FC(F)(F)c1cccc(Nc2ccccc2)c1" . Is its growth below 60%?
Result: Not met

Ask: A record lists "CC[C@H](C)[C@@H]1NC(=O)[C@H](Cc2ccc(O)cc2)N(C)C(=O)[C@H](Cc2ccccc2)NC(=O)CN(C)C(=O)[C@@H]2CCCN2C(=O)[C@@H](Cc2ccccc2)N(C)C(=O)[C@H](CC(C)C)NC1=O" . Is its growth below 60%?
Result: Met

Just for reference, PubChem BioAssay (NCI) is where these values come from.
